- Target Of Assay: T1, FPN1-GFP (human, UniProt Q9NP59 1-571, A GFP reporter is fused to the C terminus of FPN1. Its letters are not given, so it is left out.)
- T1 sequence: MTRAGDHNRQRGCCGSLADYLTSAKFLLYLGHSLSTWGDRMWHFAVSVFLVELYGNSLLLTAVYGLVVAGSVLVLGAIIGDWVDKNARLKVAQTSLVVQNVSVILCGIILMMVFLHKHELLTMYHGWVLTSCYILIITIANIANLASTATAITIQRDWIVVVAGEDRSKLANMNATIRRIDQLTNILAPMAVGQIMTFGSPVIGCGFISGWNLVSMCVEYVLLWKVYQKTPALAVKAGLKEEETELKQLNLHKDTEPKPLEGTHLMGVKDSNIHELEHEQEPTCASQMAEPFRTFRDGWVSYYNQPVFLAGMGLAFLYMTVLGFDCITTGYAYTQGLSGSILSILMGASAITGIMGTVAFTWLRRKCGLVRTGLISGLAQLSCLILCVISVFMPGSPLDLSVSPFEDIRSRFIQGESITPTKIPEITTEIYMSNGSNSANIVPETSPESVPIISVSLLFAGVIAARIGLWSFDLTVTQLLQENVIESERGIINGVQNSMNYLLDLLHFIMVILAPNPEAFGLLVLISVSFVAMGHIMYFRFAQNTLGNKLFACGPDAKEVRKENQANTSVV
- Assay Comment: cell-based or functional assay
Consider the following binders; for each one, report its Absolute IC50.
Numbers only, in nM.

Mab 1G9 (antibody, mouse IgG1, kappa, V domains shown) VH: QVQLKQSGAELVRPGTSVKVSCKASGYAFTSFLIEWLKQRPGQGLEWIGTINPRTGGTKYNEKFRGKATLTADKSSSTAYMQLNSLTSDDSAVYFCVREFFDYWGQGTSLTVSS VL: ETTVTQSPSYLAASPGETITINCRASKSISKYLAWFQEKPGKTNKLLIYAGSKLHSGIPSRFSGSGSGTDFTLTISSLEPEDFAMYYCFQHNEYPYTFGGGTKLELKR : 18.8

Would you kindly look at the next entry?
// query Look at this binder and give its reported Absolute IC50. Mab L2.2-4 (antibody, human IgG4 S228P, kappa, F234A L235A, V domains shown) VH: QVQLVQSGAEVKKPGSSVKVSCKASGYAFTSFLIEWVRQAPGQGLEWMGTSNPRTGGRKYKEKFRGRVTITADKSTSTAYMELSSLRSEDTAVYYCAREFFDYWGQGTTVTVSS VL: DIQMTQSPSSLSASVGDRVTITCRASKSISKYTAWYQQKPGKAPKLLIYAGSKLRSGVPSRFSGSGSGTDFTLTISSLQPEDFATYYCQQHNEYPYTFGGGTKVEIKR
// result 6.2
